# Target or system: Protein-glutamine gamma-glutamyltransferase (Homo sapiens)
# Assay details: Irreversible inhibition of human TG2 using Cbz-Glu-(gamma-p-nitrophenylester)Gly (AL5) as substrate assessed as substrate hydrolysis by measuring observed binding constant incubated for 20 mins by colorimetric assay
Assay endpoint: K (min⁻¹)

smiles_repr=O=C(CCl)NCC(=O)N1CCN(C(=O)C23CC4CC(CC(C4)C2)C3)CC1 units_symbol=min⁻¹ observed=0.537
smiles_repr=C=CC(=O)NCC(=O)N1CCN(C(=O)C23CC4CC(CC(C4)C2)C3)CC1 units_symbol=min⁻¹ observed=0.5
smiles_repr=C=C(Cl)C(=O)NCC(=O)N1CCN(C(=O)C23CC4CC(CC(C4)C2)C3)CC1 units_symbol=min⁻¹ observed=0.509
smiles_repr=C=C(Br)C(=O)NCC(=O)N1CCN(C(=O)C23CC4CC(CC(C4)C2)C3)CC1 units_symbol=min⁻¹ observed=0.497
